# target: murine E^d MHC class II allele (Mus musculus, UniProt P01904+P01915)
# Sequence (P01904 26-255): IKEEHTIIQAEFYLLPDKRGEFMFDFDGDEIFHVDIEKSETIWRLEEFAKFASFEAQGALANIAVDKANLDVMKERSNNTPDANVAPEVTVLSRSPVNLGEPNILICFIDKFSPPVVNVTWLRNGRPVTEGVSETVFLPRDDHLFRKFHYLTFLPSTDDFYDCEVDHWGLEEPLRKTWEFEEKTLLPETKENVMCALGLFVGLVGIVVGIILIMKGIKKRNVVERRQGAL
# Sequence (P01915 27-264 limits assumed): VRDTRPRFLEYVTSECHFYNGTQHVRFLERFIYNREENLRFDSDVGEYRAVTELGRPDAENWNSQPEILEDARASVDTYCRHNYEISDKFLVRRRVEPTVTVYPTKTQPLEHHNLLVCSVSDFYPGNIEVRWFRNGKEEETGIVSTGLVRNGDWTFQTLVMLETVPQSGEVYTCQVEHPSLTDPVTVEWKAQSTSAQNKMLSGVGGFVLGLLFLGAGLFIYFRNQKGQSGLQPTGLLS
# method_description: simultaneous assay, E^d allele (A20 APC, G28.C9 T hybridoma, HEL106-116; HT-2 [3H]TdR readout)
# Assay type: cell-based
# Design: The A20 and CH27 B cell lymphoma lines express H-2^d and H-2^k alleles, respectively; endogenous in cells; host or cells: A20 B cell lymphoma (mitomycin C-treated or paraformaldehyde-fixed)
# experimental_parameters: Table 10; AE peptide 64 μM (first value); supernatant 1:2
recorded_metric: Times Baseline Response, E^d
Give only the figure.

[[record]]
substance = "Ac-YRMKLPKSAA-NH2 [AE128]"
recorded_metric = "Times Baseline Response, E^d"
recorded_measurement = 33.0

[[record]]
substance = "Ac-YRAKLPKSAK-NH2 [AE122]"
recorded_metric = "Times Baseline Response, E^d"
recorded_measurement = 16.2

[[record]]
substance = "Ac-YRMKLPKAAK-NH2 [AE127]"
recorded_metric = "Times Baseline Response, E^d"
recorded_measurement = 19.1

[[record]]
substance = "Ac-YRMKLPASAK-NH2 [AE126]"
recorded_metric = "Times Baseline Response, E^d"
recorded_measurement = 18.2

[[record]]
substance = "Ac-YAMKLPKSAK-NH2 [AE121]"
recorded_metric = "Times Baseline Response, E^d"
recorded_measurement = 2.7

[[record]]
substance = "Ac-YRMKLPKSAK-NH2 [AE109]"
recorded_metric = "Times Baseline Response, E^d"
recorded_measurement = 27.5


For reference, reported Times Baseline Response, E^d for Ac-YRMKLAKSAK-NH2 [AE125] stands at 2.0

The recorded Times Baseline Response, E^d for entry Ac-ARMKLPKSAK-NH2 [AE120] equals 35.4

So for Ac-YRMALPKSAK-NH2 [AE123] , the logged Times Baseline Response, E^d turned out to be 24.0

Data point: Ac-YRMKAPKSAK-NH2 [AE124] ; Times Baseline Response, E^d = 12.5

###

# Tested on: murine E^k MHC class II allele
# method_description: AE101 series peptide prepulse assay, E^k allele
# Assay type: cell-based
# experimental_parameters: Table 35; AE101 series peptide prepulse 64 μM; antigenic peptide 0.4 μM; supernatant dilution 1:2
Positions of bridges follow the written chain, without caps; N, C: chain ends. No end group written: not given here.
So basically, if T cell response relative to baseline with PBS-pretreated APC (NONE = 1.0), E^k comes in under 2 it's met, and if it's 2 or more it's not met.

These solved cases illustrate the format of a correct answer.
[[record]]
substance = "Ac-LRMK D PK-NH2 (Ac-LRMKDPK-NH2) [AE230]"
target = "murine E^k MHC class II allele"
category_label = "met"

[[record]]
substance = "Ac-LRMK Y PK-NH2 (Ac-LRMKYPK-NH2; not fully specified; printed as Ac-LRMK Y PK-NH2) [AE235]"
target = "murine E^k MHC class II allele"
category_label = "not met"

[[record]]
substance = "Ac-LR L KLPK-NH2 (Ac-LRLKLPK-NH2; not fully specified; printed as Ac-LR L KLPK-NH2) [AE206]"
target = "murine E^k MHC class II allele"
category_label = "not met"


Query block: Take the substance Ac-LRMKLPK (lactam 4-C) [AE382] and say whether its T cell response relative to baseline with PBS-pretreated APC (NONE = 1.0), E^k is less than 2.
Result block: not met

Query block: Could you please tell me whether T cell response relative to baseline with PBS-pretreated APC (NONE = 1.0), E^k recorded for cyclic LRMKLPK (bridge (positions not given here); also: cyclic, ring type not given here) [AE381, “head-to-tail” cyclization from the amino-terminus to the carboxyl-terminus of AE114] is less than 2?
Result block: met
